- System: ESR1 transcription in MVLN cells
- Assay Procedure: MVLN reporter assay: repression of ESR1 transcription (luciferase signal)
- Assay type: cell-based
- Study Conditions: Homo sapiens, MVLN, 24 h, luciferase signal after 24 h, read-out: MVLN reporter assay, IC50 [M] (arithmetic mean)
Each entry below carries its recorded IC50.
Measurement Label: IC50 (M)

In [3]: df
Out[3]:
                                   molecule  limit_sign  reported
0  O=C(NS(=O)(=O)c1ccccc1I)c1cc2c(F)cc(N3CCC3)cc2o1           =  3.19e-07
1  CCOc1ccc(C(C)CC)cc1S(=O)(=O)NC(=O)c1cc2c(F)cc(N3CCC3)cc2o1 (racemic)           =  9.04e-09
2  CCCc1ccc2nc(Cl)c(S(=O)(=O)NC(=O)c3cc4c(F)cc(N5CCC5)cc4o3)n2n1           =  2.98e-06
3  CC(Oc1ccccc1S(=O)(=O)NC(=O)c1cc2c(F)cc(N3CCC3)cc2o1)C(F)(F)F (racemic) [Example 13]           =  1.66e-07
4  Cc1ccc(S(=O)(=O)NC(=O)c2cc3c(F)cc(N4CCC4)cc3o2)c2ccccc12           =   1.2e-06
5  CCS(=O)(=O)c1nc2ccccn2c1S(=O)(=O)NC(=O)c1cc2c(F)cc(N3CCC3)cc2o1           >     2e-05
6  CC1CCN1c1cc(F)c2cc(C(=O)NS(=O)(=O)c3ccccc3-c3ccccc3)oc2c1 (racemic)           =  1.44e-06

Origin of values: patent US20240279207A1
